# system_tested: LAP2, Q96RT1
# Sequence (Q96RT1 other isoform, or with tags, fused parts or gaps): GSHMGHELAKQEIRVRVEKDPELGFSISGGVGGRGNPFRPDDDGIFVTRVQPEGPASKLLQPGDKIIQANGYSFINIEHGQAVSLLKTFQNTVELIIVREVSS
# protocol_text: holdup assay
# Set-up: key: below the threshold = too weak to quantify, mostly under pKd 3.1 to 4
# stated_conditions: plain residues with an end cap or a label only (N-terminal biotin on a linker: ado-ado)
property_measured: pKd

Below, 6 binders whose answers are already recorded.
[[record]]
binder = "HDDYFYHDEL [RCN2, Q14257]"
value_reported = "below the threshold"

[[record]]
binder = "ELKAEDEVQI [DCHS2, Q6V1P9]"
value_reported = "below the threshold"

[[record]]
binder = "NISARRFTLC [FAM167B, Q9BTA0]"
value_reported = "below the threshold"

[[record]]
binder = "ADEMICITTL [CACNA1D, Q01668]"
value_reported = 3.66

[[record]]
binder = "QKASRNESTF [POLR1D, P0DPB6]"
value_reported = "below the threshold"

[[record]]
binder = "NNMAFETTHF [SLC5A12, Q1EHB4]"
value_reported = "below the threshold"


## Input Fill in: pKd of PLPPEEESWV [GAS2L2, Q8NHY3] is ___
## Output 5.73

## Input Fill in: pKd of VISSDDLTEL [CAPN6, Q9Y6Q1] is ___
## Output below the threshold

## Input Fill in: pKd of KSRPENGTVC [TMEM178B, H3BS89] is ___
## Output below the threshold

## Input Fill in: pKd of FLVTEFNVML [DFNB31, Q9P202] is ___
## Output below the threshold

## Input Fill in: pKd of TKDKVQETQI [LRRC4, Q9HBW1] is ___
## Output 3.54

## Input Fill in: pKd of FHSIKQSTAV [CRHR1, P34998] is ___
## Output 3.85
